- Test system: AD38 cells
- assayNotes: Viability of AD38 cells, Promega CellTiter-Glo
- Assay type: cell-based
- runParameters: 10 μM compound, 6 days, CellTiter-Glo luminescence, controls being 100%
measuredProperty: AD38 Viability Normalized Result (cmpd/DMSO %) at 10 μM

compound=O=C(NCc1cccc(Oc2ccc(O)cc2)c1)c1ccc2c(c1)NC(=O)c1ccccc1S2(=O)=O tgt="AD38 cells" unitannotation=% datavalue=95
compound="O=C(NCC(c1ccccc1)N1CCCC1)c1ccc2c(c1)NC(=O)c1ccccc1S2(=O)=O (stereo not shown)" tgt="AD38 cells" unitannotation=% datavalue=103
compound=CN(C)S(=O)(=O)c1ccc(CCNC(=O)c2ccc3c(c2)NC(=O)c2ccccc2N3)cc1 tgt="AD38 cells" unitannotation=% datavalue=92
compound=O=C(NCCc1ccc(-c2cnn[nH]2)cc1)c1ccc2c(c1)NC(=O)c1ccccc1S2(=O)=O tgt="AD38 cells" unitannotation=% datavalue=96

###

- Tested on: AD38 cells
- assayNotes: Viability of AD38 cells, Promega CellTiter-Glo
- Type: cell-based
- runParameters: 10 μM compound, 6 days, CellTiter-Glo luminescence, controls being 100%
Catalogue of AD38 Viability Normalized Result (cmpd/DMSO %) at 10 μM readings, one per entry.
measuredProperty: AD38 Viability Normalized Result (cmpd/DMSO %) at 10 μM

molecule="O=C(NCc1cccc(-c2cnn[nH]2)c1)c1ccc2c(c1)NC(=O)c1ccccc1S2(=O)=O [Compound 570]" unitannotation=% datavalue=112
molecule="O=C(NCc1ccc(-c2ccc(O)cc2)c(Cl)c1)c1ccc2c(c1)NC(=O)c1ccccc1O2 [Compound 721]" unitannotation=% datavalue=29
molecule="O=C(NCc1ccc(-c2ccc3[nH]ncc3c2)cc1)c1ccc2c(c1)NC(=O)c1ccccc1S2(=O)=O [Compound 678]" unitannotation=% datavalue=76
molecule="CCN1c2ccc(C(=O)NCCc3ccc(S(=O)(=O)N(C)C)cc3)cc2NC(=O)c2ccccc21 [Compound 501]" unitannotation=% datavalue=91

###

Catalogue of AD38 Viability Normalized Result (cmpd/DMSO %) at 10 μM readings, one per entry.
- Test system: AD38 cells
- assayNotes: Viability of AD38 cells, Promega CellTiter-Glo
- Format: cell-based
- runParameters: 10 μM compound, 6 days, CellTiter-Glo luminescence, controls being 100%
measuredProperty: AD38 Viability Normalized Result (cmpd/DMSO %) at 10 μM

samplesmiles=O=C(NCc1cccc(Cc2cccc(O)c2)c1)c1ccc2c(c1)NC(=O)c1ccccc1S2(=O)=O datavalue=90%
samplesmiles=NCc1ccc(-c2ccc(CNC(=O)c3ccc4c(c3)NC(=O)c3ccccc3O4)cc2)cc1 datavalue=1%
samplesmiles=O=C(NCc1cccc(Oc2cccc(O)c2)c1)c1ccc2c(c1)NC(=O)c1ccccc1O2 datavalue=108%
samplesmiles=CN(C)CCOc1cccc(-c2ccc(CNC(=O)c3ccc4c(c3)NC(=O)c3ccccc3O4)cc2)c1 datavalue=0%

###

Catalogue of AD38 Viability Normalized Result (cmpd/DMSO %) at 10 μM readings, one per entry.
- Test system: AD38 cells
- assayNotes: Viability of AD38 cells, Promega CellTiter-Glo
- Format: cell-based
- runParameters: 10 μM compound, 6 days, CellTiter-Glo luminescence, controls being 100%
measuredProperty: AD38 Viability Normalized Result (cmpd/DMSO %) at 10 μM

samplesmiles=Cl.NCc1ccc(-c2ccc(CNC(=O)c3ccc4c(c3)NC(=O)c3ccccc3S4(=O)=O)cc2)cc1 datavalue=86
samplesmiles=O=C(NCc1ccc(-c2ccc(O)cc2Cl)cc1)c1ccc2c(c1)NC(=O)c1ccccc1O2 datavalue=29
samplesmiles=O=C(NCc1ccc(-c2ccc3[nH]ccc3c2)cc1)c1ccc2c(c1)NC(=O)c1ccccc1S2(=O)=O datavalue=102
samplesmiles=O=C(NCCc1ccc(-c2ccc(F)cc2)cc1)c1ccc2c(c1)NC(=O)c1ccccc1S2(=O)=O datavalue=3
